Data origin, for the record: patent US9193728B2

testedTarget: human recombinant serotonin (5-Hydroxytryptamine) 5-HT2A receptor (Homo sapiens, UniProt P28223)
Construct: expressed in transfected cells; host or cells: CHO-K1
Sequence (P28223 whole entry): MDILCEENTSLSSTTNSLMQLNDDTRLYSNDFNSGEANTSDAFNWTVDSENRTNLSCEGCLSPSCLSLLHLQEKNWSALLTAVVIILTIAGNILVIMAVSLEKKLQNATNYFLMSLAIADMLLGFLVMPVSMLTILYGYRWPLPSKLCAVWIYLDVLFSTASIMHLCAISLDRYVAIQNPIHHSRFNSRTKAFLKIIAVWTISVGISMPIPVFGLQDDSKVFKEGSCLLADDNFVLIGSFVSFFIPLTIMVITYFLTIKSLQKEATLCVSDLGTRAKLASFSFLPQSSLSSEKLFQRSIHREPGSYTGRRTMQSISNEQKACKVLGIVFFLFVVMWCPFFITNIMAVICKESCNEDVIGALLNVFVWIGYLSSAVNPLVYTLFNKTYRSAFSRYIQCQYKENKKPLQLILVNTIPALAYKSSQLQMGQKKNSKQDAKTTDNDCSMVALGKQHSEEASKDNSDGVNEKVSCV
assayDetails: Serotonin 5-HT2A radioligand binding ([3H]Ketanserin)
conditionContext: compound at 0.1 μM; read-out: Serotonin (0.1 μM) 5-HT2A, percentage inhibition of ligand binding
So basically: inhibition at 0.1 µM at 70% or higher? That is Condition met. Lower than 70%? That is Condition not met.

Check out these entries, answers already filled in.
>>> classification("Cc1cc2c3c(c1)c1c(n3CC(C)(c3ccc(C)nc3)OC(C)C2)CCN(C)C1 (centres unmarked)")
"Condition not met"
>>> classification("CN1CCc2c(c3cccc4c3n2CC(c2ccncc2)S4)C1 (centres unmarked)")
"Condition not met"
>>> classification("Cc1cc2c3c(c1)c1c(n3CC(c3ccc(F)cc3)CC2)CCN(C)C1 (centres unmarked)")
"Condition met"

Now examine the next entry.
IN: Has Cc1cc2c3c(c1)c1c(n3CC(c3ccc(F)cc3)=CC2)CCN(C)C1 a recorded inhibition at 0.1 µM greater than or equal to 70%?
OUT: Condition met
